Listed next: entries and their corresponding EC50.
# system.tested: T1, TIGIT on TIGIT-over expressing NFAT-Luc/Jurkat effector cells (GenScript reporter cell line) (UniProt Q495A1 22-244, limits assumed)
# T1 sequence (looked up): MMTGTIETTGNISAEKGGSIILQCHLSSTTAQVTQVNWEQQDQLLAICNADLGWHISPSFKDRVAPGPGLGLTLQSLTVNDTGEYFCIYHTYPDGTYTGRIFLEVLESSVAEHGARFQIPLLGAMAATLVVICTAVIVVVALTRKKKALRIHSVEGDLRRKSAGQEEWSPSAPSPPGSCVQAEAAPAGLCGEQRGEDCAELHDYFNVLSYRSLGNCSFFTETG
# assay.protocol: cell-based or functional assay
measured.endpoint: EC50 (nM)

| binder | measured.endpoint | inequality.operator | value.reported |
| --- | --- | --- | --- |
| TIGIT-52 chimeric antibody (antibody, human IgG1, kappa, V domains shown, Full-length chimeric IgG1 kappa) VH: EVQLVESGGGLVEPGGSLTLSCVASGFTFSSFAMSWVRQTPEKRLEWVATISNGGSYTYYPDTVKGRFTISRDNAKNTLFLQMSSLRSEDTAMYYCARPYYGTTYGYYFDFWGQGTTLTVSS VL: QIVLTQSPASLAVSLGQRATISCRASESVDRNGNSFMHWYQQKPGQPPKLLIYLASNLESGVPARFSGSGSRTDFTLTIDPVEADDAATYYCQQNNEDPLTFGAGTKLELKR | EC50 | > | 100 |
| TIGIT-19 chimeric antibody (antibody, human IgG1, kappa, V domains shown, also called 19VH + 19VL) VH: QVQLQQPGPELVKPGTSVMLSCKASGYAFSRYSMYWVKQSHGKSLEWIAFIDPYNGGSTYNQRFRGKATLTVDKSSSTAYMHLNTLTSDDSAVYYCARGGDYGWYLGVWGAGTTVTVSS VL: DIQMTQSPASLSASVGETVTITCRPSENIYTYLSWYQQKRGKSPQLLVYNAKTLPENVPSRFSGSGSGTQFSLKIDSLQPEDFGNYYCQHHYGNPLTFGAGTKLELKR | EC50 | = | 3.28 |

Data provenance is patent US20260139048A1.
